# methodSummary: in vitro
# experimentalParameters: human
Below, each entry is listed with its recorded CC50.
Quick reminder: number only, in nM, skip the unit.

C/C=C/[C@H]1O[C@@](O)([C@@H](C)[C@H](O)[C@H](C)[C@H]2OC(=O)/C(OC)=C/C(C)=C/[C@@H](C)[C@@H](O)[C@@H](C)[C@@H](O)[C@H](C)C/C(C)=C/C=C/[C@@H]2OC)C[C@@H](O[C@@H]2C[C@H](OC(=O)CCCCCCCC)[C@@H](OC(N)=O)[C@H](C)O2)[C@@H]1C [Compound 11, 3-nonanoate Concanamycin B]: 36

Now turn to the next compound.
In one line, give reported CC50 of the entry C/C=C/[C@H]1O[C@@](O)([C@@H](C)[C@H](O)[C@H](C)[C@H]2OC(=O)/C(OC)=C/C(C)=C/[C@@H](C)[C@@H](O)[C@@H](C)[C@@H](O)[C@H](C)C/C(C)=C/C=C/[C@@H]2OC)C[C@@H](O[C@@H]2C[C@H](OC(=O)CCCC)[C@@H](OC(N)=O)[C@H](C)O2)[C@@H]1C [Compound 9, 3-pentanoate Concanamycin B] .
27

* * *

Below, each entry is listed with its recorded Viability:Nef (therapeutic window separating Nef IC50 and TC50).
# Tested on: primary CD4+ T cells
# methodSummary: in vitro
# experimentalParameters: ratio TC50 to Nef IC50

CC=CC=CC1OC(O)(C(C)C(O)C(C)C2OC(=O)C(OC)=CC(C)=CC(C)C(O)C(C)CC(C)=CC=CC2OC)CC(OC2CC(O)C(O)C(C)O2)C1C (stereo not shown) [Compound S15, PC-766B, reference compound]: 1.1 fold
C/C=C/[C@H]1O[C@@](O)([C@@H](C)[C@H](O)[C@H](C)[C@H]2OC(=O)/C(OC)=C/C(C)=C/[C@@H](C)[C@@H](O)[C@@H](CC)[C@@H](O)[C@H](C)C/C(C)=C/C=C/[C@@H]2OC)C[C@@H](O[C@H]2C[C@@H](O)[C@H](O)[C@@H](C)O2)[C@@H]1C [Compound 5, concanamycin C, reference compound]: 2.3 fold
CO/C1=C\C(C)=C\[C@@H](C)[C@@H](O)[C@@H](C)C/C(C)=C/C=C/[C@H](OC)[C@@H]([C@@H](C)[C@@H](O)[C@H](C)[C@@]2(OC)C[C@@H](O)[C@H](C)C(C(C)C)O2)OC1=O (stereo partly shown) [Compound S4, Bafilomycin A2]: 1.2 fold

Now turn to the next compound.
In one line, give reported Viability:Nef (therapeutic window separating Nef IC50 and TC50) of the entry C/C=C/[C@H]1O[C@@](O)([C@@H](C)[C@H](O)[C@H](C)[C@H]2OC(=O)/C(OC)=C/C(C)=C/[C@@H](C)[C@@H](O)[C@@H](CC)[C@@H](O)[C@H](C)C/C(C)=C/C=C/[C@@H]2OC)C[C@@H](O[C@@H]2C[C@H](OC(=O)CCCC)[C@@H](OC(N)=O)[C@H](C)O2)[C@@H]1C [Compound 8, 3-pentanoate Concanamycin A] .
4.8 fold

* * *

# Test system: primary CD4+ T cells
# methodSummary: in vitro
# experimentalParameters: ratio TC50 to Nef IC50
reportedProperty: Viability:Nef (therapeutic window separating Nef IC50 and TC50)

Study these solved cases before continuing.
C/C=C/[C@H]1O[C@@](O)([C@@H](C)[C@H](O)[C@H](C)[C@H]2OC(=O)/C(OC)=C/C(C)=C/[C@@H](C)[C@@H](O)[C@@H](CC)[C@@H](OC(C)=O)[C@H](C)C/C(C)=C/C=C/[C@@H]2OC)C[C@@H](O[C@@H]2C[C@H](OC(C)=O)[C@@H](OC(N)=O)[C@H](C)O2)[C@@H]1C: 11 fold
C/C=C/CC(=O)O[C@@H]1C[C@](O)([C@@H](C)[C@H](O)[C@H](C)[C@H]2OC(=O)/C(OC)=C/C(C)=C/[C@@H](C)[C@@H](O)[C@@H](C)C/C(C)=C/C=C/[C@@H]2OC)OC(C(C)C)[C@H]1C (stereo partly drawn): 1.6 fold

Now turn to the next compound.
Send back primary CD4+ T cells Viability:Nef (therapeutic window separating Nef IC50 and TC50) of `C=C/C=C/C(=O)O[C@@H]1C[C@](O)([C@@H](C)[C@H](O)[C@H](C)[C@H]2OC(=O)/C(OC)=C/C(C)=C/[C@@H](C)[C@@H](O)[C@@H](C)C/C(C)=C/C=C/[C@@H]2OC)O[C@H](C(C)C)[C@H]1C` only.
1.4 fold
